test: kinase inhibitors altering Pseudomonas killing of worms, whole organism (AID 651566);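 also: tested at 14 µM; sign flipped so higher z means a lower ratio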; details: C. elegans killed by P. aeruginosa, survival ratio
Kindly return Y if reported z-score is no lower than -0.1; return N if it is lower.

INSERT INTO measurements (compound, group_label) VALUES
  ('N#Cc1c(NC(=O)c2ccc(F)cc2)sc2c1CCCC2', 'N'),
  ('COc1ccccc1Oc1nccc(-c2c(-c3ccc(F)cc3)ncn2C2CCNCC2)n1', 'Y'),
  ('Fc1ccc(-c2nc3n(c2-c2ccncc2)CCS3)cc1', 'Y'),
  ('CS(=O)(=O)Nc1ccc(N=Cc2c(O)[nH]c3ccccc23)cc1', 'Y'),
  ('COc1cc2ncnc(Nc3ccc4c(cnn4Cc4ccccc4)c3)c2cc1OC', 'N');

Evaluate `CS(=O)(=O)CCNCc1cc(-c2cc3c(Nc4ccc(OCc5cccc(F)c5)c(Cl)c4)ncnc3s2)cs1` : z-score at minimum -0.1? Y

Next compound up: `O=C1NC(=O)C(c2ccccc2)=C1Nc1ccccc1` Y

Check `Cc1cc(Cl)cc2c(N=Nc3ccc(S(N)(=O)=O)cc3)c(O)[nH]c12` too. N

Please give the result for `COC(=O)Nc1nc2ccc(Oc3ccc(NC(=O)Nc4ccccc4)cc3)cc2[nH]1` too. Y

And for `COc1cccc(-n2ncc3c(N/N=C/c4ccc(F)cc4)ncnc32)c1` ? N

Consider next the compound `Nc1ccc(C#Cc2cncnc2Nc2ccc(OCc3cccc(F)c3)c(Cl)c2)cc1` in the same way. N

---

assay: stimulators of nuclear beta-catenin in C2C12, primary screen, imaging, WNT3A-conditioned medium, mouse C2C12, NPC library (AID 1117326); conditions: stimulation, at 2 µM, stronger effect = higher value; also: reference of the scale not given here
VALUE_TYPE: nuclear beta-catenin stimulation (%)
One number for each entry, in %.

Worked cases, answers included:
INSERT INTO assay_data (molecule, observed_measurement) VALUES
  ('Cc1cc(CC(=O)O)c(C)n1-c1ccc(Cl)cc1', -0.4),
  ('C/C(=N\O)c1ccc(OCC(=O)N2CCCCC2)cc1', -1.1),
  ('NC(=Nc1ccccc1)Nc1ccccc1', 1.4),
  ('COc1ccc(C(C#N)C(C)C)cc1OC (configuration not stated)', 0.3),
  ('CCOCCOC(=O)/C=C/c1ccc(OC)cc1', 1),
  ('CCCC(CCC)(C(=O)OCC)C(=O)OCC', -2.9),
  ('CCCCCCCCCC(=O)O', 0.7),
  ('Cc1ccc(O)c([C@H](CCN(C(C)C)C(C)C)c2ccccc2)c1', 3.5),
  ('C[C@@H](N)C(=O)O', 0),
  ('COc1cc2c(cc1OC)CN(C(=O)[C@H](C)N[C@@H](CCc1ccccc1)C(=O)O)[C@H](C(=O)O)C2', -2.5);

For every item in the list below, what is its measured nuclear beta-catenin stimulation?
1. C[C@]12CCC(=O)C=C1CC[C@@H]1[C@@H]2[C@@H](O)C[C@@]2(C)[C@H]1CC[C@]2(O)C(=O)COC(=O)CCC(=O)O
2. CCOC(=O)[C@@H](N)CS

3
-1

---

So I've got a bunch of compounds here, and I need their insulin secretion stimulation values.
assay: stimulators of insulin release from INS-1E, primary screen, cell-based, 5 mM glucose, NPC library (AID 1117329); conditions: rat INS-1E insulin secretion, at 10 µM, stronger effect = higher value; also: reference of the scale not given here
Answers are plain numbers, in %.

Look over these answered cases.
INSERT INTO results (compound, observed_measurement) VALUES
  ('Clc1ccccc1-c1nc(-c2ccncc2)no1', -2.3),
  ('CC(=O)OCC[N+](C)(C)C', 0.3),
  ('CC(C)(C)c1nnc(NS(=O)(=O)c2ccccc2)s1', 33.5),
  ('CC[C@H]1CN2CCc3cc(OC)c(OC)cc3[C@@H]2C[C@@H]1C[C@H]1NCCc2cc(OC)c(OC)cc21', 13.4);

For every record below, what is its insulin secretion stimulation?
1. Cc1cccc(CN2CCN(C(c3ccccc3)c3ccc(Cl)cc3)CC2)c1 (stereo unspecified)
2. O=C(O)[C@@H]1CSCN1

[-1.7, -2.5]
